# credit: ChEMBL document CHEMBL1136760

- tgt: Sodium-dependent dopamine transporter (Rattus norvegicus, UniProt P23977)
- Sequence (P23977 whole entry): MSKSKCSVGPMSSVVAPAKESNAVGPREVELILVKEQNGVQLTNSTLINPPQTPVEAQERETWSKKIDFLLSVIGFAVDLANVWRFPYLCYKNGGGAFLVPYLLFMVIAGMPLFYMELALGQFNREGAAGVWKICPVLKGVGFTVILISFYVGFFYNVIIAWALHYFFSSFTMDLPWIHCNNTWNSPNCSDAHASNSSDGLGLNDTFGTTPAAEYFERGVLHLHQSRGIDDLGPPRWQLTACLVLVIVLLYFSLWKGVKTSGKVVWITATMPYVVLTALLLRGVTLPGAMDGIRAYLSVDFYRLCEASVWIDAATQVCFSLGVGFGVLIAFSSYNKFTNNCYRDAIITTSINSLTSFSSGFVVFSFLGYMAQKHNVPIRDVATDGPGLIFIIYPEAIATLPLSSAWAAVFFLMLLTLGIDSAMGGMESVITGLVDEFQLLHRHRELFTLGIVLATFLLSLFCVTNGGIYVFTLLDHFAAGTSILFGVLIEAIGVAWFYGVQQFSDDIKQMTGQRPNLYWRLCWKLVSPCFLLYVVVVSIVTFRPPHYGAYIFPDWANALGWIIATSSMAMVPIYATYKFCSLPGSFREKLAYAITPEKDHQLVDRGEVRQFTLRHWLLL
- experimentalProtocol: Inhibition of [3H]DA uptake at DAT in rat striatal synaptosomes.
Attribute: IC50
Number in nM, nothing else.

INSERT INTO measurements (compound, valuekind, measurementunit, assayvalue) VALUES
  ('OC1(c2ccccc2)C2CCC1CN(Cc1ccccc1)C2 (stereo not given)', 'IC50', 'nM', 27100),
  ('Clc1ccc(C2C3CCC2CN(Cc2ccccc2)C3)cc1 (stereo not given)', 'IC50', 'nM', 601),
  ('c1ccc(CN2CC3CCC(C3)C2)cc1', 'IC50', 'nM', 35700),
  ('c1ccc(CN2CC3CCC(C2)C3c2ccccc2)cc1 (stereo in doubt; 14)', 'IC50', 'nM', 4450),
  ('c1ccc(CN2CC3CCC(C2)C3c2ccccc2)cc1 (stereo in doubt; 8a)', 'IC50', 'nM', 309),
  ('c1ccc(C2C3CCC2CNC3)cc1 (stereo not given)', 'IC50', 'nM', 893);

Request: Record Clc1ccc(C2C3CCC2CNC3)cc1 (stereo not given) : what is its IC50 with Sodium-dependent dopamine transporter (Rattus norvegicus, UniProt P23977)?
Result: 478

Request: Record CN1CC2CCC(C1)C2c1ccc(Cl)cc1 (stereo not given) : what is its IC50 with Sodium-dependent dopamine transporter (Rattus norvegicus, UniProt P23977)?
Result: 926

Request: Record CN1CC2CCC(C1)C2c1ccccc1 (stereo not given) : what is its IC50 with Sodium-dependent dopamine transporter (Rattus norvegicus, UniProt P23977)?
Result: 1040

Request: Record CN1CC2CCC(C1)C2(O)c1ccccc1 (stereo not given) : what is its IC50 with Sodium-dependent dopamine transporter (Rattus norvegicus, UniProt P23977)?
Result: 9770

---

- tgt: UniProtKB P31652
- experimentalProtocol: Inhibition of [3H]citalopram binding to Serotonin transporter (5-HTT) in rat cortical tissue.
Attribute: IC50

Known results for compounds:
INSERT INTO assay_data (compound, assayvalue) VALUES
  ('c1ccc(CN2CC3CCC(C2)C3c2ccccc2)cc1 (stereo in doubt; 14)', '3.88 µM'),
  ('CN1CC2CCC(C1)C2(O)c1ccccc1 (stereo not drawn)', '> 10 µM');

Then there is this compound:
Request: Entry c1ccc(CN2CC3CCC(C3)C2)cc1 : reported IC50 = ?
Result: > 10 µM

---

- tgt: UniProt:P31652
- experimentalProtocol: Inhibition of [3H]citalopram binding to Serotonin transporter (5-HTT) in rat cortical tissue […]
- experimentalConditions: 10 uM
Tick satisfied if inhibition is 30% or greater. Tick not satisfied if inhibition is less than 30%.

INSERT INTO assay_data (molecule, classassignment) VALUES
  ('c1ccc(CN2CC3CCC(C3)C2)cc1', 'not satisfied'),
  ('CN1CC2CCC(C1)C2(O)c1ccccc1 (configuration not stated)', 'not satisfied'),
  ('c1ccc(CN2CC3CCC(C2)C3OC(c2ccccc2)c2ccccc2)cc1 (stereo in doubt; 17a)', 'satisfied'),
  ('OC1C2CCC1CN(Cc1ccccc1)C2 (configuration not stated)', 'not satisfied');

Now for a further molecule.
Request: Does inhibition meet or surpass 30% for OC1(c2ccccc2)C2CCC1CNC2 (configuration not stated) ?
Result: satisfied

---

- tgt: Sodium-dependent dopamine transporter (Rattus norvegicus, UniProt P23977)
- experimentalProtocol: Inhibition of [3H]DA uptake at DAT in rat striatal synaptosomes.
Note to self: use True only for IC50 readings below 3 µM; a reading exactly at 3 µM still gets False.

INSERT INTO results (compound, classassignment) VALUES
  ('BrC1C2CCC1CN(Cc1ccccc1)C2 (stereo unspecified)', 'False'),
  ('c1ccc(CN2CC3CCC(C2)C3OC(c2ccccc2)c2ccccc2)cc1 (stereo in doubt; 17b)', 'True'),
  ('OC1C2CCC1CN(Cc1ccccc1)C2 (stereo unspecified)', 'False'),
  ('OC1(c2ccc(Cl)cc2)C2CCC1CN(Cc1ccccc1)C2 (stereo unspecified)', 'True');

Request: Does this compound meet the criterion IC50 < 3 µM? OC1(c2ccccc2)C2CCC1CNC2 (stereo unspecified)
Result: False

Request: Does this compound meet the criterion IC50 < 3 µM? c1ccc(CN2CC3CCC(C2)C3OC(c2ccccc2)c2ccccc2)cc1 (stereo in doubt; 17a)
Result: True
